TEST SYSTEM: TNFR1 (Homo sapiens)
ASSAY NOTES: biochemical
No end group written: not given here.
OBSERVABLE: Kd

Lab note: H-DEQHLETELH [Hydrostatin-SN10] gave Kd of ~2800 nM

====

TEST SYSTEM: TNFR1 (Homo sapiens)
Sequence (P19438 30-455): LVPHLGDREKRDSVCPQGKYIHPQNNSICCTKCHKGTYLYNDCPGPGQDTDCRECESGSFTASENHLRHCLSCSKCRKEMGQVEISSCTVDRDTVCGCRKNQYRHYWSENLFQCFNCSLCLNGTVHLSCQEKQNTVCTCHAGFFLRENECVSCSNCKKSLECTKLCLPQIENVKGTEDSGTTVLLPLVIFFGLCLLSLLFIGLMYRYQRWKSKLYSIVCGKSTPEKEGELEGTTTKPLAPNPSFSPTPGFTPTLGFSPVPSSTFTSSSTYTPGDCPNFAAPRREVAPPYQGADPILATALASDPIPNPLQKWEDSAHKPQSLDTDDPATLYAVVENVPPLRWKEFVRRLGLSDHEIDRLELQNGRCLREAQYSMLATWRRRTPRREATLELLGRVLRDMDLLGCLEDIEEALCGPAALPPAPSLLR
ASSAY NOTES: biochemical
No end group written: not given here.
OBSERVABLE: pKd
Reminder that pKd means the negative base-10 logarithm of the concentration expressed in mol/L.

Bench note, TNFR1 (Homo sapiens): entry H-DEQHLETELH [Hydrostatin-SN10] , its pKd = 5.55
